Form: system (Glutamate receptor ionotropic, NMDA 2B (Rattus norvegicus, UniProt P35439+Q00960)), quantity (EC50), values below.
Reported endpoint: EC50 (µM)

Cc1sc2ncn(CC(=O)N3CC(C)(F)C3)c(=O)c2c1-c1cccc(Cl)c1F    2
Cc1sc2ncn(CC(=O)N3CC(C)(F)C3)c(=O)c2c1-c1cccc(C(F)(F)F)c1    1.1
Cc1sc2ncn(CC(=O)N3CC(C)(F)C3)c(=O)c2c1-c1cccc(Br)c1    0.78
Cc1sc2ncn(CC(=O)N3CCC(F)(F)C3)c(=O)c2c1-c1cccc(Br)c1    2.6
Cc1sc2ncn(CC(=O)N3CC(C)(F)C3)c(=O)c2c1-c1ccc(F)c(OC(C)C)c1    2

a: Cc1sc2ncn(CC(=O)N3CC(C)(F)C3)c(=O)c2c1-c1cccc(OC(F)(F)F)c1
b: C#Cc1sc2ncn(CC(=O)N3CC(C)(F)C3)c(=O)c2c1-c1ccc(F)c(Br)c1
q: When a and b are compared, which has the higher number for EC50? Refer to your chosen entry by its label in the reply.
a: a

I: CCC1(F)CN(C(=O)Cn2cnc3sc(C)c(-c4cccc(Br)c4)c3c2=O)C1
II: Cc1sc2ncn(CC(=O)N3CCC(C)(F)C3)c(=O)c2c1-c1cccc(Br)c1 (stereo unspecified)
q: When I and II are compared, which has the higher number for EC50? Refer to your chosen entry by its label in the reply.
a: II

P: Cc1sc2ncn(CC(=O)N3CC(C)(F)C3)c(=O)c2c1-c1cc(Cl)ccc1F
Q: CC1(F)CN(C(=O)Cn2cnc3sc(C(F)(F)F)c(-c4ccc(F)c(Br)c4)c3c2=O)C1
R: Cc1sc2ncn(CC(=O)N3CC[C@@H](F)C3)c(=O)c2c1-c1cccc(Br)c1
q: Highest EC50 first, then in falling order down to the smallest. I would appreciate it if you listed the labels in the requested order.
a: R, Q, P

I: Cc1sc2ncn(CC(=O)N3CC(C)(F)C3)c(=O)c2c1-c1ccc2ccccc2c1
II: Cc1sc2ncn(CC(=O)N3CCC[C@@H]3C)c(=O)c2c1-c1cccc(Br)c1
q: Between I and II , which one shows the smaller EC50 number? Refer to your chosen entry by its label in the reply.
a: I
(I: 2 µM, II: 21 µM)

1: Cc1sc2ncn(CC(=O)N3CC(C)(F)C3)c(=O)c2c1-c1ccc(Cl)c(F)c1
2: Cc1sc2ncn(CC(=O)N3CC(C)(C)C3)c(=O)c2c1-c1cccc(Br)c1
q: Between 1 and 2 , which one shows the smaller EC50 number? Refer to your chosen entry by its label in the reply.
a: 1
